Molecular target: T1, human GLP-2 receptor (human, UniProt O95838 1-553)
T1 sequence (looked up): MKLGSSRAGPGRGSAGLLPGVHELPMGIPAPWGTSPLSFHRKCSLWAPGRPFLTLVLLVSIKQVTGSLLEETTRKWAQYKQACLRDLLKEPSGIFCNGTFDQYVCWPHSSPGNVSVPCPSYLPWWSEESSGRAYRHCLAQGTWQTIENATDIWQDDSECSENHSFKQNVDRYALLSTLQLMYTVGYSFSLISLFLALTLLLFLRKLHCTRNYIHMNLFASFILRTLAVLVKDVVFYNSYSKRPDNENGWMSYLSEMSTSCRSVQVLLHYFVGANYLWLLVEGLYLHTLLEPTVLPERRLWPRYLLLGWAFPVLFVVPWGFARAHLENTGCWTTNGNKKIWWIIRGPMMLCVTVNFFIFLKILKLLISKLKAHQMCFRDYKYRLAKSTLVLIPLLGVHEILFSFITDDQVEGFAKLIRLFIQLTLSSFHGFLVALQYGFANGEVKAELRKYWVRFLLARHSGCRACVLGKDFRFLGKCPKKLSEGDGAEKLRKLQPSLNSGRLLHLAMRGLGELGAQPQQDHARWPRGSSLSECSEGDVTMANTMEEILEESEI
Assay: cell-based or functional assay
Ends that are not written are not given here. * marks the point of attachment. Palmitoyl = CCCCCCCCCCCCCCCC(=O)*
Listing of entries alongside the reported fold (EC50 vs native GLP-2).
MEASURED_PROPERTY: fold (EC50 vs native GLP-2)

[[record]]
binder = "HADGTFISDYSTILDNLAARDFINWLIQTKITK (C12 acyl group on Lys 33 (K(C12/33), 'with C12 pos 33')) [GIP-GLP-2 co-agonist 32]"
measured_property = "fold (EC50 vs native GLP-2)"
result = "5.1 fold"

[[record]]
binder = "HADGTFISDYSTILDNLAAKDFINWLIQTKITK [GIP-GLP-2 co-agonist 28]"
measured_property = "fold (EC50 vs native GLP-2)"
result = "0.98 fold"

[[record]]
binder = "HADGTFSSDYSTILDNLAAK(Palmitoyl)DFINWLIQTKITD [GIP-GLP-2 co-agonist 21]"
measured_property = "fold (EC50 vs native GLP-2)"
result = "5 fold"

[[record]]
binder = "HADGTFSSDYSTILDNLAAKDFINWLIQTKITD [GIP-GLP-2 co-agonist 20]"
measured_property = "fold (EC50 vs native GLP-2)"
result = "1 fold"

